I'd be grateful if you could share measured MIC for these entries.
tested on: P. aeruginosa ATCC 15692; experiment: MIC, P. aeruginosa ATCC 15692; assay type: cell-based; settings: Pseudomonas aeruginosa, ATCC15692; Pa = P. aeruginosa
Answer with a number only, understood to be in µg/mL.

Ask | Reported MIC for CNc1cc(F)cc2c1[nH]c1nc(Oc3cnc(C(C)O)nc3)nc(N3CC4C[C@@H](N)C4C3)c12 (stereo partly shown) : what is it?
Reply | 1

Ask | Reported MIC for `CNc1cc(F)cc2c1[nH]c1nc(Oc3ccc(C#N)nc3)nc(N3C[C@H]4C[C@@H]3C[C@H]4N)c12` : what is it?
Reply | 1

Ask | Reported MIC for CNc1cc(F)cc2c1[nH]c1nc(Oc3cnc(C)nc3)nc(N3CCC4(CC4N)C3)c12 (stereo not shown) : what is it?
Reply | 2

Ask | Reported MIC for CNc1cc(F)cc2c1[nH]c1nc(Oc3cnc(C(C)O)nc3)nc(N3CC4(CC[C@H]4N)C3)c12 (stereo partly shown) : what is it?
Reply | 1

Ask | Reported MIC for CNc1cc(F)cc2c1[nH]c1nc(Oc3cnc4cccnc4c3)nc(N3CC4C(N)C4C3)c12 (stereo not shown) : what is it?
Reply | 4

Ask | Reported MIC for `CNc1cc(F)cc2c1[nH]c1nc(Oc3cnc(C)nc3)nc(N3C[C@@H]4[C@H](N)C[C@]4(C)C3)c12` : what is it?
Reply | 1

Ask | Reported MIC for CNc1cc(F)cc2c1[nH]c1nc(Oc3cnc(C)nc3)nc(N3CC4NCCC4(C)C3)c12 (stereo not shown) : what is it?
Reply | 8

Ask | Reported MIC for `CNc1cc(F)c(C)c2c1[nH]c1nc(Oc3cnc(C)nc3)nc(N3C[C@H](N)C4(CC4)C3)c12` : what is it?
Reply | 2

Ask | Reported MIC for `CNc1cc(F)c(C)c2c1[nH]c1nc(Oc3cnc(C)nc3)nc(N3CC4C[C@@H]3C[C@H]4N)c12` : what is it?
Reply | 1
